Cited source for all entries: patent US20150104459A1

Catalogue of Trimeric HA Binding RLU readings, one per entry.
biological target: recombinant soluble homotrimeric HA of A/northern shoveler/California/HKWF115/2007 (H6N1) (Influenza A virus A/northern shoveler/California/HKWF115/2007 (H6N1)); assay: HA microarray, BCC supernatant; details: remark: other sources report otherwise
Only the number, expressed in RLU, is required.

TCN-527 (5086_C06) (antibody, V domains shown) VH: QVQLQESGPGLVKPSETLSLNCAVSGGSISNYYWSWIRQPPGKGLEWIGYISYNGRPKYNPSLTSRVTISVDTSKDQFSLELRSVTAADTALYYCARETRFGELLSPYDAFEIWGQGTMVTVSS VL: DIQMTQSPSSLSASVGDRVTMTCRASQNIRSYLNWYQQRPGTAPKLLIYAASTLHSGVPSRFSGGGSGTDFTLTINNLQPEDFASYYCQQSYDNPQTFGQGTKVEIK; 30300
TCN-534 (5249_B02) (antibody, V domains shown) VH: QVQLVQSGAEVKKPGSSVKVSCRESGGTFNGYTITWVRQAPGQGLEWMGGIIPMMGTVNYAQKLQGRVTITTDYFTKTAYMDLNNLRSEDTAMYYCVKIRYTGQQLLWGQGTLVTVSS VL: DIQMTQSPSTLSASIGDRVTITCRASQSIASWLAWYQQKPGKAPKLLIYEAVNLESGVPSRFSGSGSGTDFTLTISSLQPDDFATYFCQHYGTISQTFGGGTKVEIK; 52400
TCN-528 (5087_P17) (antibody, V domains shown) VH: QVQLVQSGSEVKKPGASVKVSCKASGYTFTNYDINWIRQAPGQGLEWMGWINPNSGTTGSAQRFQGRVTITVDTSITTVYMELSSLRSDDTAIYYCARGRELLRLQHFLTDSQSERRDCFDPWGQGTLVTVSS VL: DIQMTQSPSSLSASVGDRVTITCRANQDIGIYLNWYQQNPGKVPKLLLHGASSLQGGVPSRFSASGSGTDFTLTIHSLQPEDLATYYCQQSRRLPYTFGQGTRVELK; 46800
TCN-538 (3206_O17) (antibody, V domains shown) VH: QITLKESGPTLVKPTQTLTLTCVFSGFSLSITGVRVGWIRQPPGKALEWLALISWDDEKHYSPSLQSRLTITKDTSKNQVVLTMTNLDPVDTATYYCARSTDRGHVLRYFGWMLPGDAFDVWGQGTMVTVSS VL: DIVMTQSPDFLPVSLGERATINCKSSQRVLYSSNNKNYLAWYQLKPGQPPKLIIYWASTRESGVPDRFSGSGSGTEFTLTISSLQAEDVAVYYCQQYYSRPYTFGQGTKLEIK; 17400
TCN-540 (5060_F05) (antibody, V domains shown) VH: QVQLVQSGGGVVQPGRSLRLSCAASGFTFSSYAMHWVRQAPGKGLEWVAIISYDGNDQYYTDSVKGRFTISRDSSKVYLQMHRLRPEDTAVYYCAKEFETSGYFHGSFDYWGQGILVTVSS VL: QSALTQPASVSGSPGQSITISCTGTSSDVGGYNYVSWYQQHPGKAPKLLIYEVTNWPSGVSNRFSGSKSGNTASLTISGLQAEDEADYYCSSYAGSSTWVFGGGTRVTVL; 131
TCN-552 (5249_I23) (antibody, V domains shown) VH: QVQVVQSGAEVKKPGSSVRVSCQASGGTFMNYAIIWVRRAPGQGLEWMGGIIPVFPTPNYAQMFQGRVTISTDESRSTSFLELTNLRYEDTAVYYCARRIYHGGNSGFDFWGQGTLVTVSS VL: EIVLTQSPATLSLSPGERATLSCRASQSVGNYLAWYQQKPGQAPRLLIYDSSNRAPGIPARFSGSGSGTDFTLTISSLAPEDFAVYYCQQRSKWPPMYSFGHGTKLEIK; 38400
TCN-523 (5248_A17) (antibody, V domains shown) VH: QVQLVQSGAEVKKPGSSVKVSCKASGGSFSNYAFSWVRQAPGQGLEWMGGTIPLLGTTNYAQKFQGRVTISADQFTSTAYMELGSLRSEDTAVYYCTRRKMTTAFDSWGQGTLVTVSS VL: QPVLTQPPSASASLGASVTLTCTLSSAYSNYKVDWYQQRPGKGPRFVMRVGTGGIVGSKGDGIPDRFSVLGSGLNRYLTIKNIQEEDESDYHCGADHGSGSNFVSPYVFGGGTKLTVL; 46900
TCN-521 (3280_D18) (antibody, V domains shown) VH: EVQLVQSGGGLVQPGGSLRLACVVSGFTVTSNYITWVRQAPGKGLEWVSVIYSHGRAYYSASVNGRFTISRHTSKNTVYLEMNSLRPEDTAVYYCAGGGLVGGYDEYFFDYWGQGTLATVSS VL: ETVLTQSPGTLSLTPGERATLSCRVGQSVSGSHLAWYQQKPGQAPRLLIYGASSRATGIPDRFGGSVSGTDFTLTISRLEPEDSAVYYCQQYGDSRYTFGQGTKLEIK; 48000

(Q) Name the reported Trimeric HA Binding RLU value associated with the binder TCN-563 (5237_B21) (antibody, V domains shown) VH: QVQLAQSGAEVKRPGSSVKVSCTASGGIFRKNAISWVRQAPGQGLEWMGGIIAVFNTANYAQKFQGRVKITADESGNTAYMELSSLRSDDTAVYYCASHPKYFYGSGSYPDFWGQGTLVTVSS VL: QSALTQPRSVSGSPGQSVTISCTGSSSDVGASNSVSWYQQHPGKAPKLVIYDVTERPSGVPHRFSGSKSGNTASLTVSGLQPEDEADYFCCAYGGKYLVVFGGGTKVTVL
(A) 27300

(Q) One more binder: TCN-535 (5246_P19) (antibody, V domains shown) VH: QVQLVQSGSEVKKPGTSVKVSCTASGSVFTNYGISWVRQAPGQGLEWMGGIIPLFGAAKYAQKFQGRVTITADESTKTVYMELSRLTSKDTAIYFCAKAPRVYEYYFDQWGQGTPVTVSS VL: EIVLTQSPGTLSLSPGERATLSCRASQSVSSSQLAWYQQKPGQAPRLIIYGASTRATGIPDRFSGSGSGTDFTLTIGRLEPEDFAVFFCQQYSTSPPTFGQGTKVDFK
(A) 48200
